Values were extracted from ChEMBL document CHEMBL1201862.

# System: HOP-18
# Experiment Description: NCI tumour cell line growth inhibition, 48 h
Active and inactive are the calls of the source. Cut-off read from the data, not from the text of the source: active = GI50 up to about 1.1 µM and inactive = higher.
Observation Type: GI50

Some solved entries appear below for comparison.
INSERT INTO measurements (compound, recorded_measurement) VALUES
  ('Nc1nc(SCCC/C=C/I)nc2c1ncn2C1OC(CO)C(O)C1O (stereo unspecified)', '> 202 µM (inactive)'),
  ('CC(=O)OCC1OC(n2cc(F)c(=O)[nH]c2=O)C(NC(=O)OCc2ccccc2)C(OC(C)=O)C1OC(C)=O (stereo unspecified)', '> 100 µM (inactive)'),
  ('COc1ccc(C23C(=O)c4ccccc4N2O[C@H]2C(=O)N(c4ccccc4)C(=O)[C@H]23)cc1 (stereo partly specified)', '> 100 µM (inactive)'),
  ('[N-]=[N+]=CC(=O)c1ccccc1C#CCCc1ccccc1', '40.3 µM (inactive)'),
  ('O=c1[nH]c2c3ccccc3ccc2c2cc3c(cc12)OCO3', '2 µM (inactive)');

State its GI50 for this compound: CC(C)C(=O)/C=C/c1ccccc1
> 100 µM (inactive)
